Target: human EGFR (His672-Ala1210) (Homo sapiens)
Construct: human EGFR (His672-Ala1210); GST (N); purchased Cell Signaling Technology; host or cells: baculovirus expression system
Sequence (P00533 672-1210): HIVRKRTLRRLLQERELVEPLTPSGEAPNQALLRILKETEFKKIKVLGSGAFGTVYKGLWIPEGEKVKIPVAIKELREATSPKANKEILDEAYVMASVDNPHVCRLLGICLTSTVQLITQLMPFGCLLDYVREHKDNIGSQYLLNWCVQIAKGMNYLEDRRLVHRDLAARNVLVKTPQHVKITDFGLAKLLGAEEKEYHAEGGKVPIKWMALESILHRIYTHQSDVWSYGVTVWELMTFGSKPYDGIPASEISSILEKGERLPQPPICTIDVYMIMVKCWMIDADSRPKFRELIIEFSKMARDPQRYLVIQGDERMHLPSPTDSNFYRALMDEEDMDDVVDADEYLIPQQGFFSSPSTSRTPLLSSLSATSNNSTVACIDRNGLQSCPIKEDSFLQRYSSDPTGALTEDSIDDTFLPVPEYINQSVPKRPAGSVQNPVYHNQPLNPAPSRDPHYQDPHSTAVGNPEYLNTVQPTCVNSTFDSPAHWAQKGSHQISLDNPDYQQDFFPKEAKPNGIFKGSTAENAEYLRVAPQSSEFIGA
Test: EGFR kinase assay (HTScan kit, DELFIA)
Assay type: biochemical
Settings: compound at 1 μM; read-out: EGFR 1 μM, % of inhibition relative to control
RECORDED ENDPOINT: inhibition at 1 µM (%)

Sample records with inhibition at 1 µM:
COc1ccc2c(c1)/C(=C\c1ccc3cccccc1-3)C(=O)N2 ... 11.9
Cc1ccc2c(c1)/C(=C/c1ccc3cccccc1-3)C(=O)N2 ... 10.4
O=C1Nc2c(Cl)cccc2/C1=C/c1ccc2cccccc1-2 ... 10.8

(I) Cc1cc(/C=C2\C(=O)Nc3ccc(F)cc32)c2cccccc1-2
(II) Cc1cc(/C=C2/C(=O)Nc3ccc(F)cc32)c2cccccc1-2
(III) O=C1Nc2ccc(F)cc2/C1=C/c1cc2cccccc-2c1
rank_up(items): orders items by reported inhibition at 1 µM in ascending numerical order. Please list each label once, in the requested order.
II, III, I

---

Molecular target: human c-KIT (Thr544-Val976) (Homo sapiens)
Construct: human c-KIT (Thr544-Val976); GST (N); purchased Cell Signaling Technology; host or cells: baculovirus expression system
Sequence (P10721 544-976): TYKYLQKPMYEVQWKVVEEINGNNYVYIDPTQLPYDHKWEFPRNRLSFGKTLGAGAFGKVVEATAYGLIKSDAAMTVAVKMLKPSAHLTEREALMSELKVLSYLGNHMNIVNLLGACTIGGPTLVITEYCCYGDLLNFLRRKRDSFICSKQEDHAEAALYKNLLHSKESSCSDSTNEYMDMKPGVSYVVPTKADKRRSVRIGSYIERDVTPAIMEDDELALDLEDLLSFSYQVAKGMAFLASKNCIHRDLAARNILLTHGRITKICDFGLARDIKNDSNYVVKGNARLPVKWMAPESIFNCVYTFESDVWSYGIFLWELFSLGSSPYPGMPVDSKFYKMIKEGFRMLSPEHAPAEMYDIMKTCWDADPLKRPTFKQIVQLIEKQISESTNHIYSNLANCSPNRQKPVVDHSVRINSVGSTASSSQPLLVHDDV
Experiment: c-KIT kinase assay (HTScan kit, DELFIA)
Assay type: biochemical
Settings: compound at 0.1 μM; read-out: c-KIT 0.1 μM, % of inhibition relative to control
RECORDED ENDPOINT: inhibition at 0.1 µM (%)

The following compounds have reported results that may help.
O=C1Nc2ccc(F)cc2/C1=C\c1ccc2cccc-2cc1 ... 39.8
Cc1ccc2c(c1)/C(=C\c1ccc3cccccc1-3)C(=O)N2 ... 30.7
O=C1Nc2ccc([N+](=O)[O-])cc2/C1=C/c1ccc2cccccc1-2 ... 36.4

(P) Cc1cc(C=C2C(=O)Nc3ccc(S(=O)(=O)Nc4ccccn4)cc32)c2cccccc1-2
(Q) Nc1cc2cccccc-2c1C=C1C(=O)Nc2ccc(F)cc21
Please indicate which entry, P or Q , has the lower recorded inhibition at 0.1 µM value. Please respond with the label that marks your chosen entry.
P
(P: 23.4%, Q: 34.2%)

---

Molecular target: human FLT-3 (Arg571-Ser993) (Homo sapiens, UniProt P36888)
Construct: human FLT-3 (Arg571-Ser993); GST (N); purchased Cell Signaling Technology; host or cells: baculovirus expression system
Sequence (P36888 571-993): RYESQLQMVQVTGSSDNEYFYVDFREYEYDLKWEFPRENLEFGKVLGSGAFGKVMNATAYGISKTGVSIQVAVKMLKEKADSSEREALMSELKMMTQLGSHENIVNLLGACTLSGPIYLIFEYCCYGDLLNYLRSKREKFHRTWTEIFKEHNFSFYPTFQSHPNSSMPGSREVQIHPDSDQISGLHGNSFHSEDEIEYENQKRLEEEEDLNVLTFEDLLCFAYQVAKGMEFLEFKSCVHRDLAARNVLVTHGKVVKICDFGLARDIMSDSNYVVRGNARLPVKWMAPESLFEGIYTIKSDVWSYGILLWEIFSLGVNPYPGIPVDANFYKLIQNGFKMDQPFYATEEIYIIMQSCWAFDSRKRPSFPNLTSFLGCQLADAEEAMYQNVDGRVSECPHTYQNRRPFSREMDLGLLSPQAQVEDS
Assay: FLT-3 kinase assay (HTScan kit, DELFIA)
Assay type: biochemical
Conditions: compound at 0.1 μM; read-out: FLT-3 0.1 μM, % of inhibition relative to control
RECORDED ENDPOINT: inhibition at 0.1 µM (%)

Before answering, review these 3 worked examples.
Cc1ccc2c(c1)/C(=C/c1ccc3cccccc1-3)C(=O)N2 ... 4.5
O=C1Nc2ccc(Cl)cc2/C1=C\c1ccc2cccccc1-2 ... 28.8
O=C1Nc2ccc(F)cc2/C1=C/c1cc(Cl)c2cccccc1-2 ... 45.9

(1) O=C1Nc2c(Cl)cccc2/C1=C/c1ccc2cccccc1-2
(2) Cc1cc(C=C2C(=O)Nc3cc(F)ccc32)c2ccccc(OCCCN(C)C)c1-2
(3) O=C1Nc2ccccc2/C1=C\c1cc2cccccc-2c1
Order the records, beginning with the lowest inhibition at 0.1 µM and ending with the highest. Answer by naming the labels in the order asked.
1, 2, 3
(1: 8.9%, 2: 15.2%, 3: 48.5%)

---

Biological target: human c-KIT (Thr544-Val976) (Homo sapiens)
Construct: human c-KIT (Thr544-Val976); GST (N); purchased Cell Signaling Technology; host or cells: baculovirus expression system
Assay: c-KIT kinase assay (HTScan kit, DELFIA)
Assay type: biochemical
Details: compound at 0.1 μM; read-out: c-KIT 0.1 μM, % of inhibition relative to control
RECORDED ENDPOINT: inhibition at 0.1 µM (%)

Cc1cc(/C=C2/C(=O)N(C(c3ccccc3)c3ccccc3)c3ccccc32)c2c(C)ccc(C(C)C)cc1-2 ... 31.5
Cc1cc(C=C2C(=O)Nc3c(F)cccc32)c2ccccc(OCCCN(C)C)c1-2 ... 34.4
Cc1cc(C=C2C(=O)Nc3ccc(F)cc32)c2ccccc(OCCCN3CCN(C)CC3)c1-2 ... 58

(I) Cc1cc(C=C2C(=O)Nc3cc(F)ccc32)c2ccccc(OCCCN(C)C)c1-2
(II) CCc1cc(C=C2C(=O)Nc3ccc(F)cc32)c2cccccc1-2
Which record would sort first by descending inhibition at 0.1 µM, I or II ? Your answer should be the label of the entry you select.
I
(I: 56.5%, II: 29.6%)

---

Target: human VEGFR-2 (Val789-Val1356) (Homo sapiens)
Construct: human VEGFR-2 (Val789-Val1356); GST (N); purchased Cell Signaling Technology; host or cells: baculovirus expression system
Sequence (P35968 789-1356): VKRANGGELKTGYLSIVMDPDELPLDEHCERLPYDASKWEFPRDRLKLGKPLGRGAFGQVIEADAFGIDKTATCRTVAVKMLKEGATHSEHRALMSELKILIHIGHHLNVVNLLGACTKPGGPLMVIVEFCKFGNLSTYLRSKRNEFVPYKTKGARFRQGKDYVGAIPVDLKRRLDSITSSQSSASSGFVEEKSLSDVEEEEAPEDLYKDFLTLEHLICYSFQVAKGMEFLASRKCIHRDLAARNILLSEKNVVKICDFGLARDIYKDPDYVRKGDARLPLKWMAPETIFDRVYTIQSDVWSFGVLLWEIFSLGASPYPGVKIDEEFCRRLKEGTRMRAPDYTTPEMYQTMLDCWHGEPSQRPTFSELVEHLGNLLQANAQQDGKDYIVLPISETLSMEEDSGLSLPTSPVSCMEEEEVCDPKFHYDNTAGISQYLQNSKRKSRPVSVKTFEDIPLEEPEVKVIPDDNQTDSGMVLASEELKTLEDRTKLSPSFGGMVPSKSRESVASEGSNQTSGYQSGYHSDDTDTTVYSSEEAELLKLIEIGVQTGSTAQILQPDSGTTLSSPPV
Assay: KDR kinase assay (HTScan VEGFR-2 kit, DELFIA)
Type: biochemical
Details: compound at 0.1 μM; read-out: KDR 0.1 μM, % of inhibition relative to control
Protocol: Compounds 1-100 were treated for their efficacy in inhibiting activities of FLT-3, c-KIT, KDR/Flk-1, PDGFR-beta, EGFR, and PKC kinases by biochemical DELFIA (Dissociation Enhanced Lanthanide FIA) assays according to the procedure described below. The assays were conducted by, Division of Cell Engineering, Biomedical Engineering Research Laboratories, Industrial Technology Research Institute, Bldg. 53, 195, sec. 4, Chung Hsing Rd. Chutung, Hsinchu, Taiwan 310, R.O.C. […]
RECORDED ENDPOINT: inhibition at 0.1 µM (%)

Some entries whose results are on file:
O=C1Nc2ccc(Cl)cc2/C1=C/c1ccc2cccccc1-2 ... 39.5
Cc1cc(C=C2C(=O)Nc3ccc(F)cc32)c2ccccc(OCCCN3CCN(C)CC3)c1-2 ... 29.3
Cc1cc(C=C2C(=O)Nc3cc(F)ccc32)c2ccccc(OCCCN(C)C)c1-2 ... 1.1
Cc1cc(C=C2C(=O)Nc3ccc(S(=O)(=O)NCCCN4CCN(C)CC4)cc32)c2cccccc1-2 ... 17.6
O=C1Nc2ccc(F)cc2/C1=C/c1cc(Br)c2cccccc1-2 ... 32.8
O=C1Nc2ccc(F)cc2/C1=C\c1cc2cccccc-2c1F ... 35.4

(I) Cc1cc(/C=C2/C(=O)Nc3ccc(F)cc32)c2cccccc1-2
(II) O=C1Nc2ccc(F)cc2/C1=C/c1ccc2cccccc1-2
Could you please tell me which of these two has the higher inhibition at 0.1 µM: I or II ? # respond with the chosen item's label
II
(II: 33.9%, I: 2.3%)

(A) O=C1Nc2cc(Br)ccc2/C1=C/c1ccc2cccccc1-2
(B) O=C1Nc2ccccc2/C1=C\c1ccc2cccccc1-2
(C) COc1ccc2c(c1)NC(=O)/C2=C/c1ccc2cccccc1-2
Order the entries by their reported inhibition at 0.1 µM, beginning at the minimum. Please respond with the labels ordered as the question requires.
C, A, B
(C: 9.5%, A: 18.5%, B: 33.8%)

(I) O=C1Nc2ccc(F)cc2/C1=C\c1cc2cccccc-2c1
(II) Cc1cc(C=C2C(=O)Nc3ccccc32)c2ccccc(OCCCN(C)C)c1-2
Which record would sort first by descending inhibition at 0.1 µM, I or II ? # reply format: chosen label
II

---

Molecular target: human EGFR (His672-Ala1210) (Homo sapiens)
Construct: human EGFR (His672-Ala1210); GST (N); purchased Cell Signaling Technology; host or cells: baculovirus expression system
Test: EGFR kinase assay (HTScan kit, DELFIA)
Format: biochemical
Details: compound at 1 μM; read-out: EGFR 1 μM, % of inhibition relative to control
RECORDED ENDPOINT: inhibition at 1 µM (%)

CN(C)c1nc2cccccc-2c1/C=C1/C(=O)Nc2ccccc21 ... 12.1
O=C1Nc2ccc(F)cc2/C1=C\c1cc2cccccc-2c1 ... 17.3
O=C1Nc2ccccc2/C1=C\c1cc2cccccc-2c1 ... 13.7

---

Biological target: human c-KIT (Thr544-Val976) (Homo sapiens)
Construct: human c-KIT (Thr544-Val976); GST (N); purchased Cell Signaling Technology; host or cells: baculovirus expression system
Experiment: c-KIT kinase assay (HTScan kit, DELFIA)
Assay type: biochemical
Details: compound at 0.1 μM; read-out: c-KIT 0.1 μM, % of inhibition relative to control
RECORDED ENDPOINT: inhibition at 0.1 µM (%)

CNS(=O)(=O)c1ccc2c(c1)/C(=C\c1cc(C)c3c(OCCCN(C)C)ccccc1-3)C(=O)N2 [Compound 88] ... 19.3

(P) Cc1cc(/C=C2/C(=O)Nc3ccccc32)c2c(C)ccc(C(C)C)cc1-2 [Compound 12]
(Q) CCOC(=O)N1CCC(Nc2ccc3c(c2)NC(=O)/C3=C/c2cc(C)c3c(OCCCN(C)C)ccccc2-3)CC1 [Compound 97]
Kindly identify the item with the lower inhibition at 0.1 µM figure among these two: P and Q Write the label of whichever entry you select.
P
(P: 14.7%, Q: 30.6%)

The measured values listed here are drawn from patent US7714146B2.
